assaySummary: antifungal drug efflux pump blockers, triplex strains – S. cerevisiae, Nile Red, multiplex, primary screen (AID 485275);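 further: Nile Red retained in pooled yeast measured as flow cytometry median fluorescence; 0% = buffer negative control and 100% = Enniatin B positive control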
conditionLabel: S. cerevisiae Candida pump triplex, at 10 µM
The whole screen tested about 330,000 compounds, of which about 1,400 (0.42%) were called active.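 How the source made its calls: active means plate passing quality check with inhibition over a set limit, or well fluorescence over plate mean plus 4 SD; inactive means the rest.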 This is one part of a sample in which actives are shown more often than they occur.
Your reply should match one of these outcome classes. yes (1) for active, no (0) for inactive

Field: outcome | Entry: `COc1ccccc1NC(=O)[C@H](COCc1ccccc1)NC(=O)OC(C)(C)C`
no (0)

# outcome recorded in this test, key = Cc1ccc(C(=O)COC(=O)CCN2C(=O)C3C4CCC(C4)C3C2=O)cc1C (centres undefined)
no (0)

// outcome(item) with item = `CCOCCCn1c(NN)nc2ccccc2c1=O`
no (0)

Please indicate how the test categorized `CCOc1ccc(CCNC(=O)Nc2ccccc2)cc1OCC` .
no (0)

Entry `O=C(CC(=O)N/N=C\c1cccc(Cl)c1Cl)NCc1ccccc1` : call = ?
no (0)

Entry `Cc1noc(C)c1S(=O)(=O)N(C)C[C@H]1Oc2c(NC(=O)Nc3ccc4c(c3)OCO4)cccc2C(=O)N([C@H](C)CO)C[C@@H]1C` : call = ?
no (0)

So what was the verdict on `CCN(CC)CCn1c2c(c(SCC(=O)Nc3ccc(C(C)C)cc3)nc1=O)CCC2` in this test?
no (0)

In this assay, the call recorded for `CCOC(=O)CNC(=O)/C=C/c1c(Cl)cccc1Cl` was what?
no (0)

I would be grateful if you could indicate the recorded call for CCOc1ccc(C2/C(=C(/O)c3ccc4c(c3)CC(C)O4)C(=O)C(=O)N2CCCn2ccnc2)cc1 (centres undefined) .
yes (1)

Per the assay record, what outcome was assigned to `O=C(NC1CCCC1)C(=O)c1c[nH]c2ccccc12` ?
no (0)

What did this assay record as the result for O=C(NN1C(=O)C2C3C=CC(O3)C2C1=O)c1ccncc1 (centres undefined) ?
no (0)

Test call, this molecule: COc1ccccc1N=C1SC(C)CN1C(=O)C1CCC1 (centres undefined)
no (0)

Any idea what this test logged for COc1ccc(C2/C(=C(/O)c3ccc4c(c3)CC(C)O4)C(=O)C(=O)N2Cc2ccncc2)cc1 (centres undefined) ?
no (0)

Which result was noted for this molecule in the test: `COc1cccc(OC)c1C(=O)Nc1sc2c(c1C(N)=O)CCCC2`
no (0)

Recorded test outcome, item `CN(C)c1ccc(/C=N/NC(=O)c2ccc(Cn3cc(Br)cn3)o2)cc1`
no (0)

What outcome does the record of this test show for `COC(=O)c1ccc2c(c1)S(=O)(=O)NC(=NCCCN1CCOCC1)S2` ?
no (0)

Look up the recorded call for O=C(CN1C(=O)C2C3CCC(C3)C2C1=O)Oc1ccc2ccccc2c1 (centres undefined) in this test.
yes (1)

Dear colleague, could you share the recorded outcome for `CCC1(CC)NC(=O)N(CC(=O)OCC(=O)NC(=O)c2ccccc2)C1=O` when you have a moment?
no (0)

Recorded call for O=C(N/N=C/C=C/c1ccccc1)C1CC1(c1ccccc1)c1ccccc1 (centres undefined) ?
no (0)

For `COc1ccccc1C1CCN(c2ccc([N+](=O)[O-])cn2)CC1` , which call appears in the assay record?
no (0)

Dear all, I need the recorded test outcome for `Cc1ccc(N=C2NC(=O)/C(=C/C=C/c3ccco3)S2)cc1C` , thank you.
yes (1)

Field: outcome | Entry: `COc1c(C(C)C)oc2cc3oc(=O)ccc3cc12`
no (0)

What did the test return for COCCCN1C(=O)C(=O)/C(=C(/O)c2ccc3c(c2)CC(C)O3)C1c1cccnc1 (centres undefined) ?
no (0)

What was the test verdict on `Cc1ccc(CS(=O)(=O)CCC(=O)NCc2ccc(F)cc2)cc1` ?
no (0)

Per the assay record, what outcome was assigned to `COc1cccc(CNS(=O)(=O)c2csc(C(N)=O)c2)c1` ?
no (0)

Can you look up the reported call for COCC(C)NC(=O)c1ccc(-n2nc(C(F)(F)F)cc2-c2cccs2)cc1 (centres undefined) for me?
no (0)

GET /call?item= Cc1cccc(NC(=O)C2CCCN2S(=O)(=O)c2ccc(F)cc2)c1C (centres undefined) returns the recorded outcome of this test.
no (0)

Given `COc1ccc(/C=C(\C#N)c2c[nH]c3ccccc23)cc1` , state the outcome it received in this test.
no (0)

Kindly provide the recorded test outcome for the following molecule: CCCCN(C(=O)C(CCSC)N1C(=O)c2ccccc2C1=O)c1c(N)n(CCC)c(=O)[nH]c1=O (centres undefined)
no (0)

Kindly provide the recorded test outcome for the following molecule: `CCOC(=O)c1c(N=CN(C)C)c(C#N)c2n1CCCC2`
no (0)

Assay result, entry `Cc1ccc(-n2c(C)cc(/C=N\NC(=O)CC(=O)NC(C)C)c2C)cc1` — outcome?
no (0)

Write down the call the test reported for this molecule. Item: `CCCNC(=O)N1CCC(c2ccc3c(c2)OCO3)CC1`
no (0)

Record lookup: outcome of this test for CC(/C=C/c1ccco1)=N/NC(=O)C1COc2ccccc2O1 (centres undefined) ?
no (0)

Kindly provide the recorded test outcome for the following molecule: COc1ccccc1NC(=O)C1CCCN1S(=O)(=O)c1ccc(Cl)cc1 (centres undefined)
yes (1)

Outcome? `O=C(/C=C/c1c(Cl)cccc1Cl)NCc1ccccc1`
yes (1)

Tell me the assay call for `CN1C(=O)/C(=C/c2ccco2)SC1=Nc1cccc(C(=O)O)c1` please.
no (0)

Given CC1(C)Cc2c(cnn2-c2cccc(F)c2)C(NC(=O)c2cc[n+]([O-])cc2)C1 (centres undefined) , state the outcome it received in this test.
no (0)

Lab log entry: COc1ccc(Cc2nc3ccc(C(=O)N4CCC(N(C)C)C4)cc3o2)cc1 (centres undefined) — outcome as called in the assay?
no (0)

Please indicate how the test categorized `Cc1ccc(/C=C(\C#N)C(=O)Nc2cccc3ncccc23)o1` .
yes (1)

Which result was noted for this molecule in the test: CC1CC(=NNC(=O)C2COc3ccccc3O2)CC(C)(C)C1 (centres undefined)
no (0)

What did this assay record as the result for `Nc1ccc(N=Nc2ccccc2Cl)c(N)n1` ?
no (0)

Status in this test for Cc1cc(C(=O)NC2CC(C)(C)Cc3c2cnn3-c2ccccc2)n[nH]1 (centres undefined) ?
no (0)

// return assay outcome for `Cc1cccc(OCCC(=O)OCc2csc(CC(=O)Nc3ccccc3C)n2)c1`
no (0)

Test call for this molecule, please: CC(C)c1nnc(NC(=O)C2CCCN2S(=O)(=O)c2ccc(Cl)cc2)s1 (centres undefined)
no (0)

====

Please respond with reported inhibition for every item in the list.
assaySummary: antifungal drug efflux pump blockers, triplex strains – S. cerevisiae, Nile Red, multiplex, primary screen (AID 485275);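 further: Nile Red retained in pooled yeast measured as flow cytometry median fluorescence; 0% = buffer negative control and 100% = Enniatin B positive control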
conditionLabel: S. cerevisiae Candida pump triplex, at 10 µM, stronger effect = higher value
The campaign covered roughly 330,000 compounds. About 1,400 (0.42%) were called active. For the sample, actives were picked, then their nearest neighbours and some compounds at random.
Please respond with the number in % and leave the unit unwritten.

For the compound `COc1ccc(C(=O)NC(=S)Nc2ccccc2N2CCN(S(C)(=O)=O)CC2)cc1OC` , what inhibition is on record?
0.06

Name the reported inhibition value associated with the compound COC(C(=O)Nc1ccc(C(C)=O)cc1)c1ccccc1 (configuration not stated)
-0.08

Can you share its inhibition? I mean this compound: `CC(C)c1ccc2oc(=O)cc(CN3CCN(Cc4ccccc4)CC3)c2c1`
-0.11

Query: inhibition; subject: `CC(=O)N1c2ccccc2N(Cc2ccc([N+](=O)[O-])cc2)C(=O)C1(C)C`
0.1

Request the reported inhibition associated with `COc1ccc(S(=O)(=O)N2CCCCCC2)cc1C(=O)N(C)Cc1cccc(OC)c1OC`
0.1

Return reported inhibition; argument: O=C(CCC1CCCN(C(=O)Cc2ccc(F)cc2)C1)N1CCN(c2ccccn2)CC1 (configuration not stated)
-0.13

Requested read-out: inhibition. Entry: O=C(CSC1CC(=O)N(CCc2ccccc2)C1=O)Nc1ccc(Cl)cc1 (configuration not stated)
0.17

I am curious: what inhibition value has been reported for `Cc1nnc(SCC(=O)NC(=O)NC2CCCC2)n1N` ?
0.12

Give the measured inhibition of `O=C(Cc1ccccc1Cl)N1CCN(c2ccccn2)CC1` .
-0.02

Item `CCN1CCN(c2ccc(S(=O)(=O)N3CCCCC3)cc2NC(=O)Cc2c(Cl)cccc2Cl)CC1` has what recorded inhibition?
-0.36

What does the record list as inhibition for `COc1ccc(C(=O)NC(=S)Nc2ccc(N3CCCC3)cc2)cc1OC` ?
6.65

Any idea what its inhibition is? The compound is `CCCc1nc(N2CCN(C)CC2)c2sc(=S)n(-c3ccccc3)c2n1`
0.75

Requested field: inhibition. Item: `O=C(Cc1ccc(Br)cc1)N1CCN(c2ccccn2)CC1`
11.1

May I ask what inhibition has been recorded for O=C1NC(=O)C2C1C(c1ccc([N+](=O)[O-])cc1)=NN2Cc1ccccc1 (configuration not stated) ?
1.09

Reported inhibition, compound `CC1CCN(C(=O)CCNC(=O)c2ccccc2)CC1` : ____
-0.28

Recorded inhibition for CCN(C(=O)CSc1nnc(-c2ccc(OC(F)F)cc2)n1N)C1CCS(=O)(=O)C1 (configuration not stated) , please?
0.02

Tell me the measured inhibition of `Cc1ccccc1NC(=O)CSC(=O)c1ccccc1` , please.
-0.08

# input compound: `CCCc1nc(-c2ccccc2O)n(-c2ccccc2)n1` ; wanted: its inhibition
0.2

Requested field: inhibition. Item: `Cc1cccc(-n2c(N)c(C(=O)N3CCN(C)CC3)sc2=S)c1`
-0.2

What measured inhibition goes with CC1CCc2c(sc3c2C2=NS(=O)(=O)CCN2C=N3)C1 (configuration not stated) ?
0.15

Requested field: inhibition. Item: Cc1cc(C)cc(NC(=O)C(OC(=O)c2ccc(O)cc2)c2ccccc2)c1 (configuration not stated)
0.91

Reported inhibition for O=C(NCCCCc1ccccc1)C1CC(c2ccc([N+](=O)[O-])cc2)=NO1 (configuration not stated) : what is it?
0.02
